B1: library; numbered along this chain (parent)
chain: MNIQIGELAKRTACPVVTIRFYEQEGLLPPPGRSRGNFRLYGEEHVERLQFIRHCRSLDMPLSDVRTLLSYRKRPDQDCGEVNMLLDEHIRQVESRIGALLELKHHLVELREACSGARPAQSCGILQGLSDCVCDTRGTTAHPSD

- Variants of: B1
- method.notes: sfGFP reporter fluorescence (15 h) (µM FITC); higher = higher leak
- experimental.context: library round: Round 0; ligand: none
reported.endpoint: sfGFP reporter fluorescence
Give only the figure.

Take a look at these entries with their results.
variant.id	sfGFP reporter fluorescence
R111F	0.0581
N83I	0.0561
G36W	0.0579
V108H	0.0577
G128P	0.055

Form: variant = K104V G128I ; sfGFP reporter fluorescence = 0.0826

Form: variant = "C134P" ; sfGFP reporter fluorescence = 0.0667

Form: variant = "C114G" ; sfGFP reporter fluorescence = 0.052

Form: variant = "V16E" ; sfGFP reporter fluorescence = 0.0634

Form: variant = "L129H" ; sfGFP reporter fluorescence = 0.0586

Form: variant = "P15Q" ; sfGFP reporter fluorescence = 0.0654
